Below: a set of entries, each annotated with reported viability, T/C.
system: KRAS-mutant PDC multicell tumor spheroid viability; test: Anticancer human tumor 521955-158-R2-J5-PDC patient-derived pancreatic carcinoma cell line growth inhibition [KRAS2]; details: second compound 0.316 µM; first compound 0.0316 µM; active compounds read low;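 note: viability read after seven days of drug exposure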
Numbers only here, please. The scale is %.

Please review the following examples before continuing.
MOLECULE	OUTCOME_MEASURE	RECORDED_MEASUREMENT
CCN1CCN(Cc2ccc(Nc3ncc(F)c(-c4cc(F)c5nc(C)n(C(C)C)c5c4)n3)nc2)CC1 + CNCc1ccccc1-c1csc(C(C)Nc2nc(C)nc3cc(OC)c(OC)cc23)c1	viability, T/C	89.6
CC1COCCN1c1cc(-c2ccnn2C)c2ccnc(-c3ccn[nH]3)c2n1 (stereo not drawn) + COc1cc2nc(C)nc(NC(C)c3cc(N)cc(C(F)(F)F)c3)c2cc1OC1CCOC1	viability, T/C	33
Cn1nccc1Nc1nccc(-c2cc3c(s2)C(C)(C)N(CCN2CCOCC2)C3=O)n1 + C=CC(=O)N1CCN(c2nc(=O)n(-c3c(C)ccnc3C(C)C)c3nc(-c4c(O)cccc4F)c(F)cc23)C(C)C1	viability, T/C	125
CC(=O)Nc1cccc(-n2c(=O)n(C3CC3)c(=O)c3c(Nc4ccc(I)cc4F)n(C)c(=O)c(C)c32)c1 + C=CC(=O)N1CCN(c2nc(=O)n(-c3c(C)ccnc3C(C)C)c3nc(-c4c(O)cccc4F)c(F)cc23)C(C)C1	viability, T/C	19.6
CC(C)NCC(C(=O)N1CCN(c2ncnc3c2C(C)CC3O)CC1)c1ccc(Cl)cc1 (stereo not drawn) + CC1OCC2(CCN(c3cnc(Sc4ccnc(N)c4Cl)c(N)n3)CC2)C1N	viability, T/C	65.3

[in] Return reported viability, T/C; argument: CC(C)NCC(C(=O)N1CCN(c2ncnc3c2C(C)CC3O)CC1)c1ccc(Cl)cc1 (stereo not drawn) + C=CC(=O)N1CCN(c2nc(=O)n(-c3c(C)ccnc3C(C)C)c3nc(-c4c(O)cccc4F)c(F)cc23)C(C)C1
[out] 116

[in] Report viability, T/C for CC(C)n1nc(-c2ccc3oc(N)nc3c2)c2c(N)ncnc21 + COc1cc2nc(C)nc(NC(C)c3cc(N)cc(C(F)(F)F)c3)c2cc1OC1CCOC1 please.
[out] 33.7

[in] Which viability, T/C value belongs to CC(C)n1nc(-c2ccc3oc(N)nc3c2)c2c(N)ncnc21 + CNCc1ccccc1-c1csc(C(C)Nc2nc(C)nc3cc(OC)c(OC)cc23)c1 ?
[out] 30.7
